These measurements were taken from PubChem BioAssay AID687014.

Test system: Nuclear hormone receptor DAF-12 (Heterodera glycines), GAL4 fusion
procedure text: H. glycines DAF-12 receptor agonists, primary screen, cell-based, luminescence, HEK293, GAL4 fusion, UAS-luciferase (AID 687014)
measurement context: HEK293 GAL4-hgDAF12 UAS-luciferase reporter, agonist luminescence; at 6.8 µM; normalized to butyrate control
About 6,800 (1.8%) of roughly 370,000 compounds were called active.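 How the source made its calls: active means activation above a cutoff set at the mean of all screened compounds plus 3 SD (cut at about 10% in these data); inactive means the rest.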 The entries come from a sample that favours actives as a whole.
Outcomes: Yes (active), No (inactive)

| molecule | assigned class |
| --- | --- |
| COC(=O)c1cccc(Cn2ccc3ccc(-c4ccc5ccn(C(=O)c6ccccc6C)c5c4)cc32)c1 | No |
| COc1ccc(N(CC(=O)NC(C)(C)C)C(=O)c2ccco2)cc1 | No |
| COC(=O)c1sc(NC(=O)c2ccc(OC)cc2OC)nc1C | Yes |
| CCn1c2ccccc2c2cc(CC(N)=O)ccc21 | No |
| COC(=O)C1CN(CC(C)C)CCS(=O)(=O)N1Cc1ccc(F)cc1 (stereo not given) | No |
| Cc1nn2c3cc(N4CCOCC4)ccc3nc2c2ccccc12 | Yes |
| O=C(CNS(=O)(=O)c1ccccc1F)N1CCN(c2ccccn2)CC1 | No |
| COc1cccc2cc(/C(C)=N/NC(=O)c3ccco3)oc12 | No |
| COc1ccc(/C(N)=N/OC(=O)Cc2ccccc2)cc1 | Yes |
| Cc1ccc(NC(=O)CN2CCC(C(N)=O)CC2)cc1[N+](=O)[O-] | No |
| c1cnc(N2CCN(c3ccc4ccccc4n3)CC2)nc1 | Yes |
| COc1ccc(NC(=O)COC(=O)c2ccncc2)c(OC)c1 | No |
| CC(CCN1CCC(C(O)(c2ccccc2)c2ccccc2)CC1)Oc1ccc([N+](=O)[O-])cc1Cl (stereo not given) | No |
| COc1ccc(NC(=O)c2cc([N+](=O)[O-])ccc2NC(=O)CNC2CCCCC2C)c(OC)c1 (stereo not given) | No |
| COc1ccc(/C(N)=N/OC(=O)Oc2ccccc2)cc1 | No |
